Test system: NCI/ADR-RES ovarian
assay_explanation: NCI tumour cell line growth inhibition, 48 h
assay_endpoint: TGI

[[record]]
molecule = "CC(=O)CC(O)(C(F)(F)Cl)C(F)(Cl)Cl (stereo unspecified)"
measured_result = "> 10 µM"

[[record]]
molecule = "CC[C@H](C)[C@H](NC(=O)CN(C)C)C(=O)N(C)[C@H](C[C@@H](OC(C)=O)c1nc(C(=O)NC23C4C5C2C2C3C4C52C(=O)OC)cs1)C(C)C (stereo partly specified)"
measured_result = "> 33.2 µM"

[[record]]
molecule = "CN1N=C(c2ccncc2)OC1c1ccc(C(F)(F)F)cc1 (stereo unspecified)"
measured_result = "> 100 µM"

[[record]]
molecule = "N#Cc1ccc2c(-c3ccnc(NC4CC4)n3)c(-c3ccc(F)cc3)nn2c1"
measured_result = "> 25 µM"

[[record]]
molecule = "O=C(NCC(O)COc1ccccc1)c1ccccc1O (stereo unspecified)"
measured_result = "> 100 µM"

[[record]]
molecule = "O=C(OC1C#CCSCC#C/C=C\\1)c1ccc2c(c1)C(=O)c1ccccc1C2=O (stereo unspecified)"
measured_result = "> 100 µM"

[[record]]
molecule = "C=CC[PH+](c1ccccc1)c1ccccc1.C=CC[PH+](c1ccccc1)c1ccccc1.[Pt+2].[S-]c1nc2ccccc2[nH]1.[S-]c1nc2ccccc2[nH]1"
measured_result = "> 100 µM"

[[record]]
molecule = "C=CCN(C(C)=O)c1cc(OCc2ccccc2)c2c(c1)c(C)cn2S(=O)(=O)c1ccccc1"
measured_result = "> 100 µM"

[[record]]
molecule = "CCCNC(=O)c1cc(OC)c(OC)cc1NC(=O)C12CC3CC(CC(C3)C1)C2"
measured_result = "48.3 µM"

[[record]]
molecule = "CCOc1c2c(cc3c1C(=O)c1c(OC)cccc1C3=O)C=C(OC)CC2"
measured_result = "> 25 µM"

[[record]]
molecule = "O=C(NCCN1CCOCC1)c1cc2c(Oc3ccc(NC(=O)C4(C(=O)Nc5ccc(F)cc5)CC4)cc3)ccnc2[nH]1"
measured_result = "> 100 µM"

[[record]]
molecule = "COc1cc(C(=O)/C=C/c2c[nH]c3ccccc23)cc(OC)c1OC"
measured_result = "33.6 µM"

[[record]]
molecule = "NP1(Oc2ccc(F)cc2)=NP(N)(Oc2ccc(F)cc2)=NP(Oc2ccc(F)cc2)(Oc2ccc(F)cc2)=N1 (stereo unspecified)"
measured_result = "18.4 µM"

[[record]]
molecule = "CN(CCNC(=O)c1nn(C)c2c1Cc1ccccc1-2)CCNC(=O)c1nn(C)c2c1Cc1ccccc1-2"
measured_result = "70.4 µM"

[[record]]
molecule = "CN(N=O)c1ccc(/C=C/c2ccnc3ccccc23)cc1"
measured_result = "> 100 µM"

[[record]]
molecule = "Cc1cnc(C(=O)Nc2nc3ccc(S(=O)(=O)Nc4ccc(C(C)(C)C)cc4)cc3[nH]2)cn1"
measured_result = "3.57 µM"

[[record]]
molecule = "COc1cc([C@H]2OC[C@@H]3C(c4cc(OC)c5c(c4)OCO5)OC[C@H]23)cc(OC)c1OC (stereo partly specified)"
measured_result = "> 100 µM"

[[record]]
molecule = "Cc1ccc(NC(c2ccccc2)P(=O)(c2ccccc2)c2ccccc2)cc1 (stereo unspecified)"
measured_result = "> 100 µM"

[[record]]
molecule = "O=C(Cn1c(=O)oc2ccccc21)N(c1ccccc1)c1ccccc1"
measured_result = "> 100 µM"

[[record]]
molecule = "CSc1ccc(-c2cn3ccsc3n2)cc1"
measured_result = "> 100 µM"

[[record]]
molecule = "C/C(=C\\COP(=O)(O)OP(=O)(O)O)CC/C=C(\\C)CNc1c(F)c(F)c(F)c(F)c1F"
measured_result = "> 100 µM"

[[record]]
molecule = "NC1CC(=O)c2c(I)sc(I)c21 (stereo unspecified)"
measured_result = "> 61.7 µM"

[[record]]
molecule = "COC(=O)c1sc2c(c1C(=O)OC)C(=Nc1ccc(OC)cc1)SC2=Nc1ccc(OC)cc1"
measured_result = "3.47 µM"

[[record]]
molecule = "COc1cc(C2c3cc4c(cc3[C@@H](Nc3ccc(F)cc3)C3COC(=O)[C@H]23)OCO4)cc(OC)c1O (stereo partly specified)"
measured_result = "45.7 µM"

[[record]]
molecule = "O=C(O)c1ccccc1Sc1ccc(C=C2NC(=S)N(c3ccccc3)C2=O)s1"
measured_result = "> 100 µM"

[[record]]
molecule = "COc1cc(F)c(F)c(Nc2ccc(I)cc2F)c1NS(=O)(=O)C1(CC(O)CO)CC1 (stereo unspecified)"
measured_result = "57.9 µM"

[[record]]
molecule = "COc1ccc2c(Cl)cc(NC(=S)Nc3ccccc3)nc2c1"
measured_result = "54.1 µM"

[[record]]
molecule = "Oc1ccccc1/C=N\\NC(=S)Nc1ccc(F)cc1"
measured_result = "> 37.8 µM"

[[record]]
molecule = "Cc1[nH]c2c(C)c3c([nH]c4ccc(Cl)cc43)c(C)c2c(=O)c1C"
measured_result = "60.5 µM"

[[record]]
molecule = "C[N+]1(CC[N+]2(C)CCCC2c2cccnc2)CCCC1c1cccnc1 (stereo unspecified)"
measured_result = "> 100 µM"

[[record]]
molecule = "N#Cc1cnn(C(=O)c2nn(-c3ccc(Cl)cc3)cc2O)c1N"
measured_result = "8.78 µM"

